Target: H. sapiens SLC2A9 variant 2 (GLUT9B) (Homo sapiens)
Sequence (Q9NRM0 1-511 isoform Q9NRM0-2): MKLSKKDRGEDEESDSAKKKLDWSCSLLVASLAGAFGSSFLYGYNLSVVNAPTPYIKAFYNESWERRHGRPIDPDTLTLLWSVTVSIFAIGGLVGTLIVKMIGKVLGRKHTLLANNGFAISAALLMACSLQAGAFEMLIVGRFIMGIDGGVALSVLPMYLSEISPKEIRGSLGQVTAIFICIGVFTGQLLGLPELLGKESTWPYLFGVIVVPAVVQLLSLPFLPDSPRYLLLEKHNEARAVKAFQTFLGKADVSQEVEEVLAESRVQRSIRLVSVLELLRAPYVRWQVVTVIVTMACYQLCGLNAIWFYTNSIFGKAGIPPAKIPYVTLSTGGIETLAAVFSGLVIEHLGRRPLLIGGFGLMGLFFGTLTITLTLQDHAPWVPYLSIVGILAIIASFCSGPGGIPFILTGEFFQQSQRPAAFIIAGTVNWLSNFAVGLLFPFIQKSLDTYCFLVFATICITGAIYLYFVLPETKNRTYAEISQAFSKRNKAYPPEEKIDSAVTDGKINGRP
Experiment: GLUT9 functional assay: uric acid uptake in HEK293T cells, allantoin formation by MS/MS as proxy of GLUT9B inhibition
Assay type: cell-based
Conditions: 15 minute assay; HEK293T cells stably expressing GLUT9B and transiently A. oryzae uricase; uric acid 0.3 mM, 37° C.; read-out: 15 min IC50
parameter measured: IC50

Study these solved cases before continuing.
molecule | value observed
CCCCc1cnc(-c2ccc(OCCOC)c(F)c2)c(N2CCC(C(=O)O)CC2)n1 | < 500 nM
COCCOc1ccc(-c2ncc(CCC(F)(F)C(F)(F)F)nc2N2CCC(C(=O)O)CC2)cc1 | 500 to 2000 nM
COCCCc1cnc(-c2cnc3occc3c2)c(N2CCC(C(=O)O)CC2)c1 | 500 to 2000 nM
O=S1NC(C2CCN(c3nc(COCC(F)(F)F)cnc3-c3cc(F)c4occc4c3)CC2)=NO1 (centres unmarked) | 500 to 2000 nM
CCCCc1cnc(-c2ccc(OC)cc2)c(-c2coc(C(=O)O)c2)c1 | > 2000 nM
COCCCc1cnc(-c2ccc3occc3c2)c(N2CC(C(=O)O)C2)n1 | > 2000 nM
O=C(O)C1CCN(c2nc(CC(C(F)(F)F)C(F)(F)F)cnc2-c2ccc3c(c2)OCO3)CC1 | 500 to 2000 nM

Please turn your attention to the following entry.
Prompt: Read off the recorded IC50 for O=C(O)C1CCN(c2nc(CCC(F)(F)C(F)(F)F)cnc2-c2ccc3occc3c2)CC1
Response: < 500 nM

---

Target: H. sapiens SLC2A9 variant 2 (GLUT9B) (Homo sapiens)
Assay: GLUT9 functional assay: uric acid uptake in HEK293T cells, allantoin formation by MS/MS as proxy of GLUT9B inhibition
Format: cell-based
Conditions: 60 minute assay; HEK293T cells stably expressing GLUT9B and transiently A. oryzae uricase; uric acid 0.3 mM, 37° C.; read-out: 60 min IC50
parameter measured: IC50

molecule | IC50
COCCCc1cnc(-c2ccc3occc3c2)c(N2CCC(C(=O)O)CC2)n1 | < 500 nM
COCCCc1cnc(-c2cc(F)c3occc3c2)c(N2CC[C@@H](C(=O)O)C[C@@H]2C)n1 (single isomer, unassigned) | < 500 nM

Prompt: Would you please give the reported IC50 of COCCCc1cnc(-c2ccn3ncnc3c2)c(N2CCC(C(=O)O)CC2)n1 with H. sapiens SLC2A9 variant 2 (GLUT9B) (Homo sapiens)?
Response: > 2000 nM

Prompt: Would you please give the reported IC50 of COCCCc1cnc(-c2cc(C)c3occc3c2)c(N2CCC(C(=O)O)CC2)n1 with H. sapiens SLC2A9 variant 2 (GLUT9B) (Homo sapiens)?
Response: < 500 nM

Prompt: Would you please give the reported IC50 of COCCCc1cnc(-c2cc(C(F)F)c3occc3c2)c(N2CCC(C(=O)O)CC2)n1 with H. sapiens SLC2A9 variant 2 (GLUT9B) (Homo sapiens)?
Response: < 500 nM

Prompt: Would you please give the reported IC50 of COCCCc1cnc(-c2ccc3c(c2)OCO3)c(N2CCC(C(=O)O)CC2)c1 with H. sapiens SLC2A9 variant 2 (GLUT9B) (Homo sapiens)?
Response: < 500 nM

Prompt: Would you please give the reported IC50 of COCCCc1cnc(-c2ccnc3ccccc23)c(N2CCC(C(=O)O)CC2)n1 with H. sapiens SLC2A9 variant 2 (GLUT9B) (Homo sapiens)?
Response: > 2000 nM

Prompt: Would you please give the reported IC50 of COCCCc1cnc(-c2ccc(S(C)(=O)=O)cc2)c(N2CCC(C(=O)O)CC2)n1 with H. sapiens SLC2A9 variant 2 (GLUT9B) (Homo sapiens)?
Response: < 500 nM

Prompt: Would you please give the reported IC50 of O=C(O)C1CCN(c2nc(CCCC(F)F)cnc2-c2cc(F)c3occc3c2)CC1 with H. sapiens SLC2A9 variant 2 (GLUT9B) (Homo sapiens)?
Response: < 500 nM

Prompt: Would you please give the reported IC50 of COCCCc1cnc(-c2cnc3occc3c2)c(N2CCC(C(=O)O)CC2)c1 with H. sapiens SLC2A9 variant 2 (GLUT9B) (Homo sapiens)?
Response: > 2000 nM

Prompt: Would you please give the reported IC50 of O=C(O)C1CCN(c2nc(CCCC(F)(F)F)cnc2-c2ccc3c(c2)OCO3)CC1 with H. sapiens SLC2A9 variant 2 (GLUT9B) (Homo sapiens)?
Response: < 500 nM

Prompt: Would you please give the reported IC50 of COCCCc1cnc(-c2ccc3c(c2)OCO3)c(N2CC3(CC(C(=O)O)C3)C2)c1 with H. sapiens SLC2A9 variant 2 (GLUT9B) (Homo sapiens)?
Response: > 2000 nM

Prompt: Would you please give the reported IC50 of COCCCc1cnc(-c2ccnc3c2ccn3C)c(N2CCC(C(=O)O)CC2)n1 with H. sapiens SLC2A9 variant 2 (GLUT9B) (Homo sapiens)?
Response: > 2000 nM

Prompt: Would you please give the reported IC50 of COCCCc1cnc(-c2ccc3occc3c2)c(N2CCC[C@@H](C(=O)O)C2)n1 (single isomer, unassigned) with H. sapiens SLC2A9 variant 2 (GLUT9B) (Homo sapiens)?
Response: 500 to 2000 nM

Prompt: Would you please give the reported IC50 of COCCCc1cnc(-c2ccc3ncnn3c2)c(N2CCC(C(=O)O)CC2)n1 with H. sapiens SLC2A9 variant 2 (GLUT9B) (Homo sapiens)?
Response: > 2000 nM

Prompt: Would you please give the reported IC50 of COCCCc1cnc(-c2cnc3ccccc3c2)c(N2CCC(C(=O)O)CC2)n1 with H. sapiens SLC2A9 variant 2 (GLUT9B) (Homo sapiens)?
Response: > 2000 nM
